The measurements presented in this section are drawn from PubChem BioAssay (NCI).

# protocol.summary: NCI Yeast Anticancer Drug Screen. Data for the cln2 rad14 strain (AID 165);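 also: 0% = growth equal to vehicle treated cultures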
# measurement.context: S. cerevisiae cln2 rad14 strain, at 5.0 µM (retest, dose inferred, filed as 0.5), stronger effect = higher value
The panel holds about 79,000 compounds, 15% with a hit somewhere; the sample as a whole holds those more often.
observation.type: growth inhibition (%)
The reply should be a number in %, with the unit left off.

Cc1ccc(S(=O)(=O)NC2(C=O)CCC(C(C)(C)C)CC2)cc1 (stereo unspecified) : 20
C=CCOC(=O)OCCCO : -5
COC(=O)C1C(c2ccccc2)=N[C@@H](c2ccccc2)[C@H]1C(=O)OC (stereo partly specified) : 6
O=C(NCCc1c(-c2ccccc2)[nH]c2ccccc12)C(F)(F)C(F)(F)F : 4
Nc1[nH]cnc(=S)c1NC=O : -4

Inquiry: Recorded growth inhibition for CCCCNc1ncc(OCC)c(NCCCC)n1 , please?
Reply text: -2

---

# protocol.summary: NCI Yeast Anticancer Drug Screen. Data for the cln2 rad14 strain (AID 165);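 also: 0% = growth equal to vehicle treated cultures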
# measurement.context: S. cerevisiae cln2 rad14 strain, at 50.0 µM, stronger effect = higher value
Compounds without any hit were thinned out: in the full panel of roughly 79,000, 15% have a hit.
So basically: growth inhibition at 50% or higher? That is t. Lower than 50%? That is f.

CCCCN(CCCC)CCCCCCNc1cc(OC)cc2cccnc12 : t
Cn1nc(-c2ccccc2NC(=O)C(F)(F)F)c(=O)n(C)c1=S : f
C[C@@H]1CN(CC2COc3ccccc3O2)[C@@H](C)CN1CC1COc2ccccc2O1 (stereo partly specified) : t
CCOC(=O)C1=C(C)NC(=O)NC1c1coc2cc(C)cc(C)c2c1=O (stereo unspecified) : t
COC(=O)CNC(=O)C(F)(F)F : t

Now look at this one.
Inquiry: Dear colleague, could you confirm whether CCC(=O)Oc1ccc(-c2ccccc2)cc1Cl has growth inhibition at or above 50%?
Reply text: t

---

# protocol.summary: NCI Yeast Anticancer Drug Screen. Data for the mec2-1 strain (AID 157)
# measurement.context: S. cerevisiae mec2-1 strain, at 50.0 µM (retest, dose inferred, filed as 5.0), stronger effect = higher value
Compounds without any hit were thinned out: in the full panel of roughly 79,000, 15% have a hit. Calls of active or inactive are those of the source. Rule as the data show it: active = growth inhibition above about 70%; inactive = the rest.
Measured growth inhibition accompanies every entry in the list below.

The cases that follow already have their growth inhibition on record.
CCCC1CCCC1(CC(=O)c1ccccc1)C(=O)O (stereo not given) : 46% (inactive)
Cc1cc(O)c2c(c1)OC1(C)CCC3C(C)(C)CCCC34COC2C14 (stereo not given) : 98% (active)
O=C(c1ccccc1)c1[nH]c2ccccc2c(=O)c1-c1ccc([N+](=O)[O-])cc1 : 98% (active)
Cc1cc(C[P+](c2ccccc2)(c2ccccc2)c2ccccc2)c(C)cc1C[P+](c1ccccc1)(c1ccccc1)c1ccccc1 : 49% (inactive)
COC(=O)n1c(C[P+](c2ccccc2)(c2ccccc2)c2ccccc2)cc2ccccc21 : 100% (active)
O=C1C=CCCCC1(c1ccccc1)c1ccccc1 : 14% (inactive)
CC(C)CCN1CCC2(CCCCC2)CC1 : -6% (inactive)
O=[N+]([O-])c1ccc(CCCl)c(CCl)c1 : 94% (active)
CC(C)N=C(NC(C)C)SCCCCCCSC(=NC(C)C)NC(C)C : 1% (inactive)
CC(C)c1ccc(CN(CCO)Cc2ccc(C(C)C)cc2)cc1 : 88% (active)

Inquiry: Could you share which growth inhibition value was measured for COc1cccc(C2Nc3ccccc3C(=O)N2N2CCOCC2)c1 (stereo not given) ?
Reply text: 6% (inactive)

---

# protocol.summary: NCI Yeast Anticancer Drug Screen. Data for the sgs1 mgt1 strain (AID 161);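 also: 0% = growth of cultures given vehicle only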
# measurement.context: S. cerevisiae sgs1 mgt1 strain, at 5.0 µM (retest, dose inferred, filed as 0.5), stronger effect = higher value
About 79,000 compounds went through this panel and 15% of them were active in at least one assay; those are over-represented in the sample as a whole.
Each record here notes measured growth inhibition.
Please respond with the number in % and leave the unit unwritten.

Look over these answered cases.
O=C(NCCc1c(-c2ccccc2)[nH]c2ccccc12)C(F)(F)C(F)(F)F : 33
c1csc(-c2nccc3c2[nH]c2ccccc23)c1 : -29
C=CCOC(=O)OCCCO : 2
CN=c1sc2c(n1C)C(=O)c1ccccc1C2=O : 31
O=C(Nc1ccc(Cl)cc1)OCCOCCOC(=O)Nc1ccc(Cl)cc1 : 25
O=c1[nH]cnc2c1ncn2CCc1ccccc1 : -3

Inquiry: Can you look up the measured growth inhibition of OCC1(c2ccccc2)OC1c1ccccc1 (stereo not drawn) for me?
Reply text: -65

Inquiry: Also Brc1ccc(C2c3ccccc3-c3ccccc32)cc1 , if possible.
Reply text: 15

Inquiry: Field entry: CCCCCCCNC1CCCc2cc(OC)ccc21 (stereo not drawn)
Reply text: 28

Inquiry: Okay, and c1ccc2c(c1)Cc1nc3ccccc3nc1-2 ?
Reply text: -59

Inquiry: Subsequent entry: CN(NC(=O)/C(=C\c1ccco1)NC(=O)c1ccccc1)c1cn[nH]c(=O)c1Cl
Reply text: -2

---

# protocol.summary: NCI Yeast Anticancer Drug Screen. Data for the rad50 strain (AID 155);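 also: 0% = growth of vehicle-only cultures of the same strain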
# measurement.context: S. cerevisiae rad50 strain growth inhibition; at 5.0 µM (retest, dose inferred, filed as 0.5); stronger effect = higher value
Compounds without any hit were thinned out: in the full panel of roughly 79,000, 15% have a hit.
observation.type: growth inhibition (%)
Give just the number in %; leave the unit off.

Below, each entry is followed by its recorded growth inhibition result.
Nc1nc(=Nc2ccccc2)ss1 : -12
SCCCCCCCCCCS : 0
CC1(C)CNCC(C)(OCc2ccccc2)C(=O)NC(C)(C)CNCC(C)(OCc2ccccc2)C(=O)N1 (configuration not stated) : -6

Inquiry: State the recorded growth inhibition for this entry: N#C/C(=C\c1ccc(Cl)cc1Cl)C(N)=S
Reply text: -3

Inquiry: Another: CCC(=O)Oc1c(Cl)cc(Cl)c(Cl)c1Cl
Reply text: 4

Inquiry: Can you check Cc1cc(O)c(O)cc1C/C=C/c1ccccc1 next?
Reply text: -1

Inquiry: Now this one: CCO/C=C1N=C(/C=C/c2ccccc2Cl)OC/1=O
Reply text: -6

---

# protocol.summary: NCI Yeast Anticancer Drug Screen. Data for the mec2-1 strain (AID 157)
# measurement.context: S. cerevisiae mec2-1 strain, at 5.0 µM (retest, dose inferred, filed as 0.5), stronger effect = higher value
# Protocol: Growth inhibition of yeast strains with defined genetic alterations is measured as a screen for potential anti-cancer activity. Selected strains with alterations in DNA damage repair or cell cycle control were exposed to compounds and growth inhibition was measured relative to vehicle treated controls. The strain used in this assay is mec2-1
Compounds without any hit were thinned out: in the full panel of roughly 79,000, 15% have a hit.
observation.type: growth inhibition (%)
Write it as a number; the unit % goes unstated.

// worked examples, growth inhibition included
CCC/C(=N\NC(=S)N(C)C)c1ccccn1 : 97
Cc1ccc(SC2=C(N(C)C)C(=O)c3ccccc3C2=O)cc1 : -13
CN(C)c1ccc(C2(c3ccc(N(C)C)cc3)OC(=O)c3ccccc32)cc1 : 1
Cc1ccccc1C(=N)c1ccccc1Cc1cccc2ccccc12 : -10
C=C1CC(c2ccc(OCCCN3C(=O)c4ccccc4C3=O)cc2)OC1=O (stereo unspecified) : 30

As a next step, examine the compound that follows.
Inquiry: Fill in the blank: the reported growth inhibition of CCCC/C(=C\c1cc(Cl)c(O)c(Cl)c1)C(=O)O is ____.
Reply text: 2

---

# protocol.summary: NCI Yeast Anticancer Drug Screen. Data for the cln2 rad14 strain (AID 165);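 also: 0% = growth equal to vehicle treated cultures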
# measurement.context: S. cerevisiae cln2 rad14 strain, at 50.0 µM, stronger effect = higher value
This is part of a sample that, as a whole, favours compounds with a hit. Of some 79,000 tested, about 15% had one in any assay.
Binary classification by growth inhibition, with 30% as an inclusive lower bound for Criterion met; all other cases are Criterion not met.

Check out these entries, answers already filled in.
O=C(CCC1OCCO1)Nc1cc(NCc2ccccc2)ccc1OCc1ccccc1 : Criterion met
O=C(CC(c1cccnc1)C(C(=O)c1ccc(Cl)cc1)C(CC(=O)c1ccc(Cl)cc1)c1cccnc1)c1ccc(Cl)cc1 (stereo not given) : Criterion met
Cc1ccc(S(=O)(=O)Nn2c(S)c(C#N)c(-c3ccc(Cl)cc3)c(C#N)c2=O)cc1 : Criterion met
C=CCOc1ccc(-c2ccccc2)cc1C(=O)NC : Criterion not met

Continue with the molecule presented below.
Inquiry: Reported growth inhibition at or above 30%? CN(NC(=O)/C(=C/c1cc(Cl)cc(Cl)c1O)NC(=O)c1ccccc1)c1cnn(-c2ccccc2)c(=O)c1Cl
Reply text: Criterion met

---

# protocol.summary: NCI Yeast Anticancer Drug Screen. Data for the mec2-1 strain (AID 157)
# measurement.context: S. cerevisiae mec2-1 strain, at 50.0 µM, stronger effect = higher value
# Procedure: Growth inhibition of yeast strains with defined genetic alterations is measured as a screen for potential anti-cancer activity. Selected strains with alterations in DNA damage repair or cell cycle control were exposed to compounds and growth inhibition was measured relative to vehicle treated controls. The strain used in this assay is mec2-1
The panel holds about 79,000 compounds, 15% with a hit somewhere; the sample as a whole holds those more often. The source made the active and inactive calls. Cut-off read from the data, not from the text of the source: active = growth inhibition above about 70%; inactive = the rest.
Measured growth inhibition values are reported for all entries that follow.

Sample records with growth inhibition:
O=C(CCl)NC(=O)N(/N=C/c1ccco1)c1ccccc1 : 47% (inactive)
Cc1ccc(S(=O)(=O)Nn2c(S)c(C#N)c(-c3ccc(Cl)cc3)c(C#N)c2=O)cc1 : 75.2% (active)
COc1cc(NCCCCCCCC2CCCCN2)c2ncccc2c1 (stereo not given) : 79% (active)
CN(c1ccc(C(N)=O)cc1)c1c(O)c2ccccc2[nH]c1=O : 6.8% (inactive)
COc1ccc2ccc(/C=C/[N+](=O)[O-])cc2c1OC : 88.2% (active)

Inquiry: What value of growth inhibition has been recorded for this entry: CCOC(=O)C(NC(C)=O)[CH](c1ccc(OC)cc1)[Sn]([c]1ccccc1)([c]1ccccc1)[c]1ccccc1 (stereo not given)
Reply text: 58.1% (inactive)

Inquiry: Next compound up: Oc1cc(-[n+]2ccc3ccccc3c2)c(O)c2ccccc12
Reply text: 39.2% (inactive)

Inquiry: What would you report for S=c1nc(/C=C/c2ccc(Cl)c(Cl)c2)[nH][nH]1 ?
Reply text: 44.8% (inactive)

Inquiry: Lookup CC12CCC3C(CCC4CC(O)CCC43C)C1CC=CO2 (stereo not given)
Reply text: 50.6% (inactive)

Inquiry: Try the compound CCOC(=O)C(NC(=O)c1ccccc1)[CH](c1ccc(OC)cc1)[Sn]([c]1ccccc1)([c]1ccccc1)[c]1ccccc1 (stereo not given)
Reply text: 75.2% (active)
